# key: entry, value: TGI
Tested on: XF 498 CNS
Test: NCI tumour cell line growth inhibition, 48 h
OBSERVED PROPERTY: TGI (µM)

- C=C1CC(OC)(C(OC)C(=O)N(C)[C@H]2OCO[C@H]3C2O[C@H](C[C@@H](COC)OC)C(C)(C)C3OC)O[C@H](C)[C@@H]1C (stereo not given in full): 40.1
- CCOc1ccc(NC(=O)CC2C(=O)Nc3ccccc3S2=O)cc1 (stereo not given): 74.4

###

# key: entry, value: TGI
System: OVCAR-8 ovarian
Test: NCI tumour cell line growth inhibition, 48 h
OBSERVED PROPERTY: TGI

* N#CC(C#N)=c1ccc(=C2N3CCCC3CN2C23CC4CC(CC(C4)C2)C3)cc1 (stereo unspecified) | > 100 µM
* O/N=C(\C(=N/O)Nc1ccc(-c2ccc(NC(=N/O)/C(=N\O)c3ccccc3)cc2)cc1)c1ccccc1 | 45 µM
* CC(C)C(O)(C(=O)OCN1C(=O)C2C3C=CC(C2C1=O)C1C2C(=O)N(COC(=O)C(O)(C(C)C)C(C)O)C(=O)C2C31)C(C)O (stereo unspecified) | > 100 µM
* COc1ccc(CN=C2N/C(=C\c3ccccc3Cl)C(=O)N2C)cc1 | 77.4 µM
* O=C(c1ccccc1)c1ccc2nc(-c3c(Cl)c(Cl)c(Cl)c(Cl)c3C(=O)N/N=C\C=C\c3ccccc3)[nH]c2c1 | > 100 µM
* N#CC(C#N)=C(C(C#N)C#N)C(C#N)C#N | > 100 µM
* CC#CC#Cc1cccc(=O)o1 | > 100 µM
* Cc1ccc(C2(C)CC/C(=N/N=C3/CCC(C)(c4ccc(C)c(C)c4)c4cc(C)c(C)cc43)c3cc(C)c(C)cc32)cc1C (stereo unspecified) | > 100 µM
* Cc1cc(CN2CCCCC2)c(O)c(CN2CCCCC2)c1 | > 100 µM
* Cc1c(C)c(S(=O)(=O)N(CCCCCCN)OCCCN)c(C)c2c1OC(C)(C)CC2 | 26 µM
* CC(C)OC(=O)Nc1ccc(-c2nc(-c3cccc(OCCN4CCOCC4)c3)c(-c3ccnc(Br)c3)[nH]2)cc1 | > 100 µM
* C[C@]12CC[C@H](O)CC1=CC[C@@H]1C2CC[C@]2(C)NC(=O)C(C#N)CC12 (stereo partly specified) | > 100 µM
* COc1cccc2c(Nc3ccc(C(=O)O)cc3)cc(-c3ccccc3)nc12 | > 100 µM
* OC1(c2ccccc2)CSc2ncnn21 (stereo unspecified) | > 100 µM
* COc1ccc([C@H]2[C@H](C)C3=Nc4ccccc4CN32)cc1 | > 100 µM
* COCn1cnc2c(=O)n(-c3ccc(C)cc3)c(=S)n(-c3ccc(C)cc3)c21 | > 100 µM
* O=C(CSCC(=O)N/N=C\c1cc(Cl)cc(Cl)c1O)N/N=C\c1cc(Cl)cc(Cl)c1O | 14.3 µM
* O=c1[nH]cnc2[nH]cc(CN3CCCCC3)c12 | > 100 µM
* CCCOC(=O)c1ccc2c(c1)[N+](=O)C(C(=O)c1ccccc1)=C(C(F)(F)F)[N+]2=O | 3.55 µM
* CCOC(=O)Nc1nc2cc(OC)c(OC)c(OC)c2s1 | > 100 µM
* O=C(O)CCC(N=C(C(=NC(CCC(=O)O)C(=O)O)c1ccccc1)c1ccccc1)C(=O)O (stereo unspecified) | > 100 µM
* Cc1ccc2cc3c(N)c4c(C)ccc(C)c4nc3nc2c1 | 23.5 µM
* Cc1cn(C(=O)NC23CC4CC(CC(C4)C2)C3)c(=O)[nH]c1=O | > 100 µM
* CC(=O)c1c(C)cn(S(=O)(=O)NC(=O)Nc2nncs2)c1C | > 100 µM
* CN(C)c1nc(N(C)C)sc(=O)n1 | > 100 µM
* CC(=O)N1CCN([C@H]2CCC[C@@H](NC(=O)c3cc4c(F)ccc(C)c4[nH]3)C2)CC1 | > 100 µM
* COc1ccc(/C=C2/SC(c3ccccc3)N(NC(=O)CCCCCCCCC(=O)NN3C(=O)/C(=C\c4ccc(OC)c(OC)c4)SC3c3ccccc3)C2=O)cc1OC (stereo unspecified) | > 100 µM
* Cc1cc(C23OC4COC(C)(C)OC4C2OC(C)(C)O3)nc2ccccc12 (stereo unspecified) | > 100 µM
* O=C1Nc2ccc(Br)cc2C1=Nc1ccc2c(c1)OCO2 | > 100 µM
* CCCCC1C=Cn2c(=O)oc3c(OC(C)C)c(OC(C)C)c(O)c1c32 (stereo unspecified) | 29.5 µM
* COC(=O)c1c(O)ccc2c1c1c(n2CCc2ccccc2)C(=O)c2ccccc2C1=O | 22.1 µM
* O=C(Nc1ccc(OCc2nnc(-c3ccc(Cl)cc3)o2)c(F)c1)Nc1ccc(Cl)c(Cl)c1 | > 100 µM
* Cc1c2ccccc2c(C)n2c1nc1cc3ccccc3cc12 | 2.21 µM
* C/C(O)=c1\cc(C#N)c(=C(C#N)C#N)nc1C | > 100 µM
* COC(=O)c1cc(CC2Cc3cc4c(cc3C2)CCC4)cc2c1CCC2 | > 100 µM
* CCOC(=O)c1ccc2c(c1)c1c(C)c3cnccc3c(C)c1n2C | 2.99 µM
* COC(=O)C1SC(N(C)c2ccccc2)=NC12c1ccccc1Nc1ccccc12 (stereo unspecified) | 67.6 µM
* CCCCCC(=O)n1[nH]c(=O)n(-c2ccc(OC)cc2)c1=O | > 100 µM
* NS(=O)(=O)c1ccc(N=Nc2ncccc2O)cc1 | > 100 µM
* CC(=O)Oc1cc2oc(=O)cc(C)c2cc1OC(C)=O | > 100 µM
* N#Cc1c(O)c(C=Nc2ccc(Cl)cc2)c(=O)n2c1[nH]c1ccccc12 | > 100 µM
